Taken from patent US12281122B1.

Recorded IC50 values for a group of compounds are listed next.
tested on: T47D (PI3Kα-H1047R) cell line; assay: HTRF phospho-AKT(S473) cell assay in T47D cells; type: cell-based, human; details: Homo sapiens; HTRF phospho-AKT(S473), T47D (PI3Kα-H1047R) cells, 2 hours compound incubation
measurement_name: IC50

compound="CC(=O)N1CCC(c2ccc(-c3nc4c([C@@H](C)Nc5ccc(Cl)nc5C(=O)NS(C)(=O)=O)cc(C)cc4c(=O)n3C)cc2F)CC1 [Compound 786]" measurement_name=IC50 result="< 250 nM"
compound="Cc1cc([C@@H](C)Nc2ccc(Cl)nc2C(=O)NS(C)(=O)=O)c2nc(N3C[C@@H]4[C@H](C3)[C@H]4c3nc(C)no3)n(C)c(=O)c2c1 [Compound 742]" measurement_name=IC50 result="250 to 500 nM"
compound="COc1ccc(N2CCN(c3nc4c([C@@H](C)Nc5ccc(Cl)nc5C(=O)NS(C)(=O)=O)cc(C)cc4c(=O)n3C)CC2)cn1 [Compound 635]" measurement_name=IC50 result="250 to 500 nM"
compound="Cc1cc([C@@H](C)Nc2ccc(Cl)nc2C(=O)NS(C)(=O)=O)c2nc(-c3ccc([C@@H]4CN(C)CCO4)cc3)n(C)c(=O)c2c1 (relative stereo) [Compound 803]" measurement_name=IC50 result="< 250 nM"
compound="Cc1ccc(N2C[C@@H]3C[C@H]2CN3c2nc3c([C@@H](C)Nc4ccc(Cl)nc4C(=O)NS(C)(=O)=O)cc(C)cc3c(=O)n2C)nc1 [Compound 663]" measurement_name=IC50 result="500 to 1000 nM"
compound="Cc1cc([C@@H](C)Nc2ccc(Cl)nc2C(=O)NS(C)(=O)=O)c2nc(N3[C@@H]4CC[C@H]3C[C@@H](n3ncc5ccccc53)C4)n(C)c(=O)c2c1 [Compound 696]" measurement_name=IC50 result="500 to 1000 nM"
compound="Cc1cc([C@@H](C)Nc2ccc(Cl)nc2C(=O)NS(C)(=O)=O)c2nc(N3C[C@@H]4C[C@H]3CN4c3ccc(F)cn3)n(C)c(=O)c2c1 [Compound 623]" measurement_name=IC50 result="250 to 500 nM"
compound="Cc1cc([C@@H](C)Nc2ccc(Cl)nc2C(=O)NS(C)(=O)=O)c2nc(N3C[C@@H]4[C@H](C3)[C@H]4c3nnn(C)c3C)n(C)c(=O)c2c1 [Compound 498]" measurement_name=IC50 result="< 250 nM"
compound="Cc1cc([C@@H](C)Nc2ccc(Cl)nc2C(=O)NS(C)(=O)=O)c2nc(N3C[C@H]4CC(n5cc(C)cn5)C[C@@H]4C3)n(C)c(=O)c2c1 (single isomer, unassigned) [Compound 676]" measurement_name=IC50 result="250 to 500 nM"
compound="Cc1cc([C@@H](C)Nc2ccc(Cl)nc2C(=O)NS(C)(=O)=O)c2nc(N3CCN(c4ncc(F)cn4)CC3)n(C)c(=O)c2c1 [Compound 533]" measurement_name=IC50 result="< 250 nM"
compound="Cc1cc([C@@H](C)Nc2ccc(Cl)nc2C(=O)NS(C)(=O)=O)c2nc(N3CCN(c4ccnc(C5CC5)n4)CC3)n(C)c(=O)c2c1 [Compound 590]" measurement_name=IC50 result="< 250 nM"
compound="Cc1cc([C@@H](C)Nc2ccc(Cl)nc2C(=O)NS(C)(=O)=O)c2nc(N3CCN(c4nc(C)ncc4F)CC3)n(C)c(=O)c2c1 [Compound 575]" measurement_name=IC50 result="< 250 nM"
compound="Cc1cc([C@@H](C)Nc2ccc(Cl)nc2C(=O)NS(C)(=O)=O)c2nc(N3CC[C@H](Oc4ccc(F)cc4)C3)n(C)c(=O)c2c1 (relative stereo) [Compound 691]" measurement_name=IC50 result="250 to 500 nM"
compound="Cc1cc([C@@H](C)Nc2ccc(Cl)nc2C(=O)NS(C)(=O)=O)c2nc(N3CC[C@H](c4cnc(C)c(C#N)c4)C3)n(C)c(=O)c2c1 (relative stereo) [Compound 656]" measurement_name=IC50 result="250 to 500 nM"
compound="Cc1cc([C@@H](C)Nc2ccc(Cl)nc2C(=O)NS(C)(=O)=O)c2nc(N3CCC4(CCc5c[nH]nc54)CC3)n(C)c(=O)c2c1 [Compound 682]" measurement_name=IC50 result="250 to 500 nM"
compound="Cc1cc([C@@H](C)Nc2ccc(Cl)nc2C(=O)NS(C)(=O)=O)c2nc(N3C[C@@H]4[C@H](C3)[C@H]4c3nnn(C)n3)n(C)c(=O)c2c1 [Compound 496]" measurement_name=IC50 result="< 250 nM"
compound="Cc1cc([C@@H](C)Nc2ccc(Cl)nc2C(=O)NS(C)(=O)=O)c2nc([C@H]3[C@@H]4CN(c5cnc(C)c(F)c5)C[C@@H]43)n(C)c(=O)c2c1 [Compound 828]" measurement_name=IC50 result="500 to 1000 nM"
compound="Cc1cc([C@@H](C)Nc2ccc(Cl)nc2C(=O)NS(C)(=O)=O)c2nc(-c3ccnc(O[C@@H]4CCN(C)CC4(F)F)c3)n(C)c(=O)c2c1 [Compound 809]" measurement_name=IC50 result="250 to 500 nM"
compound="C[C@@H](Nc1ccc(Cl)nc1C(=O)NS(C)(=O)=O)c1cc(F)cc2c(=O)n(C)c(-c3ccc4nn(C)cc4c3)nc12 [Compound 805]" measurement_name=IC50 result="250 to 500 nM"
compound="[2H]C([2H])([2H])n1nccc1[C@H]1[C@@H]2CN(c3nc4c([C@@H](C)Nc5ccc(Cl)nc5C(=O)NS(C)(=O)=O)cc(C)cc4c(=O)n3C)C[C@@H]21 [Compound 494]" measurement_name=IC50 result="< 250 nM"
compound="Cc1cc([C@@H](C)Nc2ccc(Cl)nc2C(=O)NS(C)(=O)=O)c2nc(N3CCC(c4ncnn4C(C)C)CC3)n(C)c(=O)c2c1 [Compound 719]" measurement_name=IC50 result="250 to 500 nM"
compound="Cc1cc([C@@H](C)Nc2ccc(Cl)nc2C(=O)NS(C)(=O)=O)c2nc(-c3ccc4cn(C)nc4c3)n(C)c(=O)c2c1 [Compound 835]" measurement_name=IC50 result="250 to 500 nM"
